# ASSAY SYSTEM: Adenosine receptor A2b (Homo sapiens) (UniProt P29275)
# Sequence (P29275 whole entry): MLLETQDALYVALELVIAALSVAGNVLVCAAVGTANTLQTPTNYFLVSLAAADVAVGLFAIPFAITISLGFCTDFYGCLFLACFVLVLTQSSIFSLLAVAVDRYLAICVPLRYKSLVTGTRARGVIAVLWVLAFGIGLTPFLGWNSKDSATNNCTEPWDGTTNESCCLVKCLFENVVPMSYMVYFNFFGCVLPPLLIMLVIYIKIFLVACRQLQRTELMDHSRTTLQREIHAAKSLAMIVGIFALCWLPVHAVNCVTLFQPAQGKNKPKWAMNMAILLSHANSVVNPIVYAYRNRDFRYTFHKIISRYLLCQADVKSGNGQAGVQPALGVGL
# METHOD NOTES: Displacement of [3H][…] from human adenosine A2B receptor expressed in CHO cells at 10 uM after 2 hrs by scintillation counting
# Type: cell-based
PROPERTY: inhibition (%)

- COCc1cc(C)nc2sc(-c3nc(N)nc(N(C)C)n3)c(N)c12: -5
- COc1nc(N)c(C#N)c(-c2ccc3c(c2)OCO3)c1C#N: 32
- C=CCn1c(=O)[nH]c2nc3cc(NC(C)=O)ccc3nc2c1=O: 14
- O=C(Cc1ccccc1)Nc1nn2c(-c3ccco3)nnc2s1: -8

----------
# ASSAY SYSTEM: Adenosine receptor A2a (Homo sapiens, UniProt P29274)
# Sequence (P29274 whole entry): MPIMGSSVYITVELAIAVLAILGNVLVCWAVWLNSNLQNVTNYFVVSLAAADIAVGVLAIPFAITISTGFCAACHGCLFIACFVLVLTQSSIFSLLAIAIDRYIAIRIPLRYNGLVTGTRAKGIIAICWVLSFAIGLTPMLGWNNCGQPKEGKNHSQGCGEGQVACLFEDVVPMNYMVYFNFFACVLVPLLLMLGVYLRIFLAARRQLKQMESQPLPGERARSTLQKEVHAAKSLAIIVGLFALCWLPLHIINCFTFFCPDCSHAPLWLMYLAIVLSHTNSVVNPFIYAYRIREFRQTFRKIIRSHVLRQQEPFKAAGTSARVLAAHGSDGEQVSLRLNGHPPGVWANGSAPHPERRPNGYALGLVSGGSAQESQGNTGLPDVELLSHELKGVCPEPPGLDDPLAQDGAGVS
# METHOD NOTES: Displacement of [3H]ZM241385 from human adenosine A2A receptor expressed in HEK 293 cells after 2 hrs by scintillation counting
# Type: cell-based, HEK293
PROPERTY: Ki (µM)

* COc1nc(N)c(C#N)c(-c2ccc3c(c2)OCO3)c1C#N | 31
* COCc1cc(C)nc2sc(-c3nc(N)nc(N(C)C)n3)c(N)c12 | 1.6
* Nc1nc(-c2ccccc2)nc(-c2ccccc2O)n1 | 0.043

----------
# ASSAY SYSTEM: Adenosine receptor A3 (Homo sapiens)
# Sequence (whole entry): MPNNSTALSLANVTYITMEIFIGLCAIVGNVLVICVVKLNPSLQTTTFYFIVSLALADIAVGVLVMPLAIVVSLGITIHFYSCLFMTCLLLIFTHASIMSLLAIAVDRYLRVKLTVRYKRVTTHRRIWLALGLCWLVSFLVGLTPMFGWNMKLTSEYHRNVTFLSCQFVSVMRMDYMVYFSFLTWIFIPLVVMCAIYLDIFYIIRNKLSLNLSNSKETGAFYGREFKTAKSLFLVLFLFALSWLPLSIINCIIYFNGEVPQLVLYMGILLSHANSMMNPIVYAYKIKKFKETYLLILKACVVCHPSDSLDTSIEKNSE
# METHOD NOTES: Displacement of [3H]PSB11 from human adenosine A3 receptor expressed in HEK 293 cells at 10 uM after 1 hr by scintillation counting
# Format: cell-based
# SETTINGS: HEK293
PROPERTY: inhibition

• COc1nc(N)c(C#N)c(-c2ccc3c(c2)OCO3)c1C#N = 21%
• C=CCn1c(=O)[nH]c2nc3cc(NC(C)=O)ccc3nc2c1=O = -3%
• COCc1cc(C)nc2sc(-c3nc(N)nc(N(C)C)n3)c(N)c12 = 33%
• O=C(Cc1ccccc1)Nc1nn2c(-c3ccco3)nnc2s1 = 3%
• N#Cc1cnc(N)nc1-c1ccccc1 = 13%
